Recorded values, source patent US20150246136A1.

- tested target: Carboanhydrase IX (Homo sapiens, UniProt Q16790 38-459)
- test summary: cell-based or functional assay
measured attribute: EC50 (nM) SNU-5
Please answer using a numeric value trailed by its unit.

# count of solved cases: 2
Example 305 (antibody, human IgG1, kappa, V domains shown, linker-toxophore on cysteine S) VH: QVELVESGGGLVQPGGSLRLSCAASGFTFSSYGMSWVRQAPGKGLEWVSGISSLGSTTYYADSVKGRFTISRDNSKNTLYLQMNSLRAEDTAVYYCARTGSPGTFMHGDHWGQGTLVTVSS VL: DIQMTQSPSSLSASVGDRVTITCRASQDINNYLSWYQQKPGKAPKLLIYGASNLQSGVPSRFSGSGSGTDFTLTISSLQPEDFAVYYCQQYYGRPTTFGQGTKVEIKR
2.2 nM
Example 294 (antibody, human IgG1, kappa, V domains shown, linker-toxophore on cysteine S) VH: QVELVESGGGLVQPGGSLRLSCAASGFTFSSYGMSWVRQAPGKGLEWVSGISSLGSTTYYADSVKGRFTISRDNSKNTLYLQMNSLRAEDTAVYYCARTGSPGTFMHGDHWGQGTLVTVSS VL: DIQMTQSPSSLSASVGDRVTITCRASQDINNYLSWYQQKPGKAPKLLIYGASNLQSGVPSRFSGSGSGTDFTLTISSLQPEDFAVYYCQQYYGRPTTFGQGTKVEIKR
21.4 nM

Please look at the following binder next.
# get_value(readout='EC50 (nM) SNU-5', item= Example 298 (antibody, human IgG1, kappa, V domains shown, linker-toxophore on cysteine S) VH: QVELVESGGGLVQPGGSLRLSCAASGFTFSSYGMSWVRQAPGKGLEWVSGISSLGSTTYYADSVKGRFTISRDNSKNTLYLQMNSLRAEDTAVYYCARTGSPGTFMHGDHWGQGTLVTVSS VL: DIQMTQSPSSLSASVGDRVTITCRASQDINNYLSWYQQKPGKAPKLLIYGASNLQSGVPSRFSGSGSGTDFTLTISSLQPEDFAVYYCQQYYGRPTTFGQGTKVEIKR )
7.8 nM
